Test system: Brugia malayi
MEASUREMENT_NOTES: AntiBrugia malayi activity Effect on motility
Format: functional, organism-based
CONDITION: Brugia malayi
ASSAY_METRIC: IC50 (µM)
Quick reminder: number only, in µM, skip the unit.

Q: Look at this compound and give its reported IC50. Cc1cc(C2=NOC(c3cc(Cl)c(F)c(Cl)c3)(C(F)(F)F)C2)ccc1C(=O)NCc1ccc2c(c1)C(C)(C)OB2O (stereo unspecified)
Ans: 3.04

* * *

Hi there, I'd appreciate the recorded pIC50 for every entry that follows.
Test system: Plasmodium falciparum
MEASUREMENT_NOTES: Antimalarial activity: Asexual Blood Stage Plasmodium falciparum Dd2 IC50 (uM)
Type: functional, organism-based
Reminder that pIC50 means the negative base-10 logarithm of the concentration expressed in mol/L.

Q: Look at this compound and give its reported pIC50. "N#Cc1ccc(-c2cnc(N)c(-c3ccc(C(N)=O)cc3)n2)cc1"
Ans: 6.96

Q: Thanks! And "O=C(Nc1ccc(N2CCNCC2)nc1)c1oc(-c2ccccc2)nc1C(F)(F)F" ?
Ans: 5.79

Q: Thanks! And "O=C(Nc1cccc(-c2ccc(NCCCN3CCCC3)nc2)c1)c1ccccc1" ?
Ans: 5.56

Q: Thanks! And "NS(=O)(=O)c1cncc(-c2ccc3nccc(-c4cn[nH]c4)c3n2)c1" ?
Ans: 6.20

Q: Thanks! And "CO/C=C(/C(=O)OC)c1ccccc1Oc1cc(Oc2ccccc2C#N)ncn1" ?
Ans: 7.05

* * *

System: Mycobacterium tuberculosis
MEASUREMENT_NOTES: AntiMycobacterium tuberculosis activity 1-week 7H9/glucose/BSA/Tx MIC (uM)
Assay type: functional
CONDITION: 168 h
ASSAY_METRIC: MIC (µM)
Quick reminder: number only, in µM, skip the unit.

Q: Look at this molecule and give its reported MIC. "COc1cc(CN2CCC3(C=Cc4ccccc43)CC2)cc2c1OCO2"
Ans: 2.3

Q: Thanks! And "Cc1nc2ccccn2c1C(=O)NCc1ccc(Cl)cc1" ?
Ans: 25

Q: Thanks! And CC(=O)NCC1CN(c2ccc(-c3ccc(CNCc4cn[nH]n4)cc3)c(F)c2)C(=O)O1 (stereo unspecified) ?
Ans: 0.2

Q: Thanks! And Cc1ccc(NC(=O)CC2COc3ccccc3O2)cc1Cl (stereo unspecified) ?
Ans: 19

Q: Thanks! And "O=C1O[C@@H](COc2ccon2)CN1c1cc(F)c(C2=CCN(Cc3ccccc3)CC2)c(F)c1" ?
Ans: 0.78

Q: Thanks! And "Nc1c2c(nc3sc4c(c13)CCCC4)CCCC2" ?
Ans: 19

* * *

Test system: Mycobacterium tuberculosis
MEASUREMENT_NOTES: AntiMycobacterium tuberculosis activity 2-week Alamar Blue 7H9/ADC/Tw MIC (uM)
Assay type: functional
CONDITION: 336 h
ASSAY_METRIC: MIC (µM)
Quick reminder: number only, in µM, skip the unit.

Q: Look at this compound and give its reported MIC. "Brc1c(-c2ccc3c(c2)OCO3)nc2ncccn12"
Ans: 4.7

Q: Thanks! And "O=C(c1ccco1)N(CCCn1ccnc1)c1nc2c(Cl)cccc2s1" ?
Ans: 25

Q: Thanks! And "CCCn1nnc(NC(=O)COc2ccc(C3CCCCC3)cc2)n1" ?
Ans: 37

Q: Thanks! And "O=C(NCc1ccco1)N1CCN(Cc2ccc(Cl)s2)CC1" ?
Ans: 12.5

Q: Thanks! And "COc1ccccc1OCCCCn1c(C2CC2)nc2ccccc21" ?
Ans: 19

Q: Thanks! And "COc1cccc(-n2nnnc2S(C)(=O)=O)c1" ?
Ans: 25

Q: Thanks! And "O=C(Nc1ccc(C(F)(F)F)c(C(F)(F)F)c1)c1cc(Cl)ccc1O" ?
Ans: 4.7

Q: Thanks! And "CCOC(=O)c1cc(-c2csc(Nc3c(C)cc(C)cc3C)n2)on1" ?
Ans: 6.25

Q: Thanks! And "COc1cccc(OC)c1C(=O)Nc1ccc(Cl)c(-c2nc3ccccc3s2)c1" ?
Ans: 37

Q: Thanks! And CC(C)n1ncc2c(C(=O)NCC(c3cccs3)N3CCOCC3)cc(-c3ccccc3)nc21 (configuration not stated) ?
Ans: 1.2

Q: Thanks! And "O=C(c1[nH]nc2c1CCCC2)N1CCN(Cc2ccc3c(c2)OCO3)CC1" ?
Ans: 4.7

Q: Thanks! And "CNc1snc(C)c1C(=O)NCCOc1ccc(OC)cc1" ?
Ans: 12.5

Q: Thanks! And "O=C(NCc1ccoc1)N1CCN(Cc2ccc3c(c2)OCO3)CC1" ?
Ans: 6.25

Q: Thanks! And "CN1CCN(CCCOc2ncc(Nc3ncc(-c4ccc(C(F)(F)F)c(F)c4)nc3C(N)=O)cn2)CC1" ?
Ans: 1.56

Q: Thanks! And Cc1ccc2[nH]c(C3CCCNC3)c(-c3ccncc3)c2c1 (configuration not stated) ?
Ans: 12.5

Q: Thanks! And "c1cncc(NCc2ccc(-c3cc4ccncc4cc3OC3CCNCC3)s2)c1" ?
Ans: 12.5

Q: Thanks! And "CCCn1c(CNc2ccccc2O)nc2ccccc21" ?
Ans: 6.25

Q: Thanks! And "COc1ccc(Nc2ccccc2NC(=O)c2ccc(O)nc2)cc1" ?
Ans: 12.5

Q: Thanks! And "COc1cc(C(F)(F)F)nc2ccc(C)c(N)c12" ?
Ans: 12.5

Q: Thanks! And "O=C(c1cc2ccccc2o1)N1CCN(Cc2ccc3c(c2)OCO3)CC1" ?
Ans: 12.5

Q: Thanks! And "O=C(NC1CCCCC1)N1CCN(Cc2ccc3c(c2)OCO3)CC1" ?
Ans: 12.5

Sourced from ChEMBL document CHEMBL3832761
